PROTOCOL_TEXT: A549 cell viability effects, profiling panel, calcein-AM fluorescence, 48 h, basal (AID 1162); further: test concentration not given here
CONDITIONS_USED: higher = more signal
MEASUREMENT_KIND: z-score

COMPOUND: COC(=O)C(CC#Cc1ccc2c(c1)[C@]1(C(=O)N2)[C@H](c2ccccc2OCCO)N2[C@H](c3ccccc3)[C@H](c3ccccc3)OC(=O)[C@H]2[C@@H]1C(=O)NC[C@H](O)c1ccccc1)C(=O)OC
RESULT: 1.24
//
COMPOUND: COCCCNC(=O)[C@@]1(Cc2ccccc2N=[N+]=[N-])N=C(c2ccc(OCCCO)cc2)O[C@H]1c1ccccc1
RESULT: -1.07
//
COMPOUND: CCOC(=O)c1ccc(NC(=O)O[C@H]2[C@H](OC(=O)Nc3ccc4c(c3)OCO4)[C@H](OC(=O)Nc3ccc4c(c3)OCO4)[C@@H](OC)O[C@@H]2CO)cc1
RESULT: -0.83
//
COMPOUND: CCCCCCc1nc(C2CC2)cc2c1[Si](C(C)C)(C(C)C)OC2
RESULT: -0.315
//
COMPOUND: COc1ccc([Si](C)(C)[C@@H]2[C@@H](CCn3cc([C@H](O)c4ccccc4)nn3)O[C@]3(C(=O)N(Cc4ccc(N5CCC5=O)cc4)c4ccccc43)[C@H]2C)cc1
RESULT: 0.388
//
COMPOUND: COC(=O)[C@@]1(Cc2ccc(F)cc2)[C@H]2c3cc(C(=O)N4CCCC4)n(CCc4ccc(O)c(O)c4)c3C[C@H]2CN1C(=O)c1ccccc1
RESULT: 0.863
//
COMPOUND: COCCOC(=O)N1C(=O)[C@@]2(c3cc(C#Cc4ccc(OC)cc4)ccc31)[C@H](C(=O)Nc1nc3ccccc3s1)[C@H]1C(=O)O[C@H](c3ccccc3)[C@H](c3ccccc3)N1[C@@H]2c1ccc(OCCO)cc1
RESULT: -0.205
//
COMPOUND: CCOC(=O)C[C@H]1[C@H](OC(=O)c2cc3ccccc3oc2=O)[C@@H](NC(=O)c2ccc(-c3ccccc3)cc2)c2cc(OCCCO)ccc2N1C(=O)c1ccccc1
RESULT: 0.182
//
COMPOUND: CC=CC(O)C1C=CC2C(=O)N(c3ccccc3)C(=O)C2N1Nc1ccccc1F (centres undefined)
RESULT: -1.68
//
COMPOUND: CC(C)[Si](C#CCCCC#N)(O[C@H](c1ccccc1)c1cn([C@H](CO)Cc2ccccc2)nn1)C(C)C
RESULT: 0.773
//
COMPOUND: O=C1O[C@@H](c2ccccc2)[C@@H](c2ccccc2)N2[C@@H](c3ccc(OCCO)cc3)[C@]3(C(=O)Nc4ccccc43)[C@@H](C(=O)O)[C@H]12
RESULT: -0.644
//
COMPOUND: COc1ccccc1CN1C(=O)c2ccccc2[C@@]2(Cc3ccccc3N(CC(F)(F)F)C2=O)[C@@H]1c1ccc(CO)cc1
RESULT: -0.912
//
COMPOUND: CCCCCCCCCCC(O)C1C=CC2C(=O)N(C)C(=O)C2N1NC(=O)OC(C)(C)C (centres undefined)
RESULT: -3.85
//
COMPOUND: CN1C(=O)C2C=CC(C(O)C#Cc3ccccc3)N(Nc3ccccc3)C2C1=O (centres undefined)
RESULT: -1.12

The reported measurements were obtained from PubChem BioAssay.
